Test system: LXRa homodimer (NR concentration 270 nM)
Experiment: PBM binding z-score (relative to random genomic background probes); higher = stronger binding; sequences stand for … in GC…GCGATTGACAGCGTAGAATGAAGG

[
  {
    "Chain sequence": "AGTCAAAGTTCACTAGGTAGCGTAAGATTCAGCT",
    "PBM binding z-score": 3.04
  },
  {
    "Chain sequence": "CCTACTGGGCCACGAGAGGTCATTGATTCAGTGA",
    "PBM binding z-score": 4.55
  },
  {
    "Chain sequence": "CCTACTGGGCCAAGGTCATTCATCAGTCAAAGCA",
    "PBM binding z-score": 1.71
  },
  {
    "Chain sequence": "AATACAGGGTAATCGTAGGCCAGAGTACGCACAG",
    "PBM binding z-score": -0.0914
  },
  {
    "Chain sequence": "ACTATTAGTTGAGACGACGGCAACCGATAGGTTG",
    "PBM binding z-score": -0.396
  },
  {
    "Chain sequence": "CCTGGTTGGTCAGGAGGTCACACACCGGATATGA",
    "PBM binding z-score": 1.62
  },
  {
    "Chain sequence": "GGAACGAGGGCATTCAAGTTGATAGCATGGCGAT",
    "PBM binding z-score": -0.583
  },
  {
    "Chain sequence": "GCGACTGAGGCATCAGCAGGTTACCATAACTTAA",
    "PBM binding z-score": -0.511
  },
  {
    "Chain sequence": "AGAAGGAGGTTACCAAAGATCAGGGAAACGCTTG",
    "PBM binding z-score": 0.0257
  },
  {
    "Chain sequence": "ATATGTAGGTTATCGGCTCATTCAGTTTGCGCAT",
    "PBM binding z-score": 0.283
  },
  {
    "Chain sequence": "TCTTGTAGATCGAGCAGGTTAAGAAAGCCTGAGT",
    "PBM binding z-score": -0.393
  },
  {
    "Chain sequence": "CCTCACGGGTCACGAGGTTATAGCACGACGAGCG",
    "PBM binding z-score": 0.232
  }
]

The measured values listed here are drawn from the supplement of paper PMC6555819.
